B1: ZNF649 (parent)
chain: YHTGKTPFVCPECGQPCSQKSGLI

- Variants of: B1
- protocol text: protein stability index of a GFP-peptide fusion (GPS, HEK-293T) (PSI 1-6); higher = more stable;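 note: lentivirally expressed fusions sorted by FACS into six bins by GFP to DsRed ratio, PSI derived from sequencing read proportions per bin multiplied by bin number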
- run conditions: c terminus: a fixed tail appended
So I've got a bunch of variants here, and I need their protein stability index values.

The measured protein stability index associated with `K5L` reads 2

The measured protein stability index associated with `S18N` reads 1.22

The measured protein stability index associated with `K5M` reads 2.44

The measured protein stability index associated with `L23P` reads 2.15

The measured protein stability index associated with `I24D` reads 1.36

The measured protein stability index associated with `E12G` reads 3.37

The measured protein stability index associated with `K20N` reads 1.07

The measured protein stability index associated with `T3Y` reads 1.27

The measured protein stability index associated with `H2V` reads 1.96

The measured protein stability index associated with `F8Y` reads 1.54

The measured protein stability index associated with `C17K` reads 3.83

The measured protein stability index associated with `P16H` reads 2.65

The measured protein stability index associated with `Q15C` reads 1.89

The measured protein stability index associated with `K5W` reads 2.1

The measured protein stability index associated with `Q19S` reads 2.96

The measured protein stability index associated with `Y1M` reads 1.65

The measured protein stability index associated with `T3K` reads 2.87

The measured protein stability index associated with `C17L` reads 1.66

The measured protein stability index associated with `P16K` reads 1.98

The measured protein stability index associated with `Q15R` reads 1.63

The measured protein stability index associated with `K5A` reads 1.62

The measured protein stability index associated with `P16V` reads 2.44

The measured protein stability index associated with `C17Y` reads 2.35

The measured protein stability index associated with `F8T` reads 1.67

The measured protein stability index associated with `G22D` reads 1.49

The measured protein stability index associated with `G4P` reads 1.83

The measured protein stability index associated with `T6F` reads 2.42

The measured protein stability index associated with `L23C` reads 2.83

The measured protein stability index associated with `V9I` reads 2.38

The measured protein stability index associated with `V9K` reads 1.58

The measured protein stability index associated with `C13Y` reads 3.41

The measured protein stability index associated with `Y1S` reads 3.72

The measured protein stability index associated with `C17N` reads 2.76

The measured protein stability index associated with `C13P` reads 2.27

The measured protein stability index associated with `S21Q` reads 1.56

The measured protein stability index associated with `E12H` reads 1.54

The measured protein stability index associated with `Y1A` reads 3.92
